# target-or-system: Stb4 (UniProt P50104)
# Sequence (P50104 whole entry): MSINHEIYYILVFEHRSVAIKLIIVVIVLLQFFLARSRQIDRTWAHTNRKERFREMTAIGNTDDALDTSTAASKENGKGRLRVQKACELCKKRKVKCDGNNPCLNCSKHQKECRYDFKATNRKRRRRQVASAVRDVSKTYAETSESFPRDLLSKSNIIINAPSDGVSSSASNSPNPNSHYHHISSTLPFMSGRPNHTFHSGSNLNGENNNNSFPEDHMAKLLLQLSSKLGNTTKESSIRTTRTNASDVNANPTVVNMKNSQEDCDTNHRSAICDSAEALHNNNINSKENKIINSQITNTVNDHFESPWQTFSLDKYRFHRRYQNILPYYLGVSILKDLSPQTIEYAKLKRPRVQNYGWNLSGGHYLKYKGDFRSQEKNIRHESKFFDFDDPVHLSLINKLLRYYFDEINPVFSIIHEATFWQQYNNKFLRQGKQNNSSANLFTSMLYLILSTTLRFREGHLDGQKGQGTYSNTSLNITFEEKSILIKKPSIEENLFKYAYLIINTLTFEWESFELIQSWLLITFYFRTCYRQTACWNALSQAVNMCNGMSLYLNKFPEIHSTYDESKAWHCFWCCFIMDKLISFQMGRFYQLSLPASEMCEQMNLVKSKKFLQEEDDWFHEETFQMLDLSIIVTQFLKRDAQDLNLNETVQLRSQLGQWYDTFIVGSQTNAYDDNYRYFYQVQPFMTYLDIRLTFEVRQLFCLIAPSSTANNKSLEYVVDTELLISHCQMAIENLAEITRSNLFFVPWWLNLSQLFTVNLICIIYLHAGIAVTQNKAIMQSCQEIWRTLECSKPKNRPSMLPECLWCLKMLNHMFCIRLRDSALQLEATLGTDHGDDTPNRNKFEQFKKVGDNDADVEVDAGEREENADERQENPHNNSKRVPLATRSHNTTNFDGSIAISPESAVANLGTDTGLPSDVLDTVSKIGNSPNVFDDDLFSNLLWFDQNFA
# protocol: PBM E-score (8-mer binding enrichment) (E-score (-0.5 to 0.5)); higher = stronger / more preferred TF binding
# particulars: protein concentration: 200 nM; construct: GST-DNA-binding domain
Whole data set: some 33,000 sequences, median “E-score (-0.5 to 0.5)” near -0.056, cut for the highest 2% near 0.38. What follows is part of a selection rich in the highest values, with near analogues and random picks from the rest.
readout-label: PBM E-score
Answers are plain numbers.

Below: 10 sequences and their reported PBM E-score.
| sequence-chain | readout-label | reading |
| --- | --- | --- |
| CAAAATTC | PBM E-score | 0.165 |
| GAAGCCGA | PBM E-score | 0.401 |
| CTATTCAG | PBM E-score | -0.288 |
| AGACCCGA | PBM E-score | 0.419 |
| GTCAGGAC | PBM E-score | -0.21 |
| AACTCGCA | PBM E-score | -0.278 |
| GCCACCGC | PBM E-score | -0.0977 |
| ATCTATGA | PBM E-score | -0.0937 |
| TACTCGGA | PBM E-score | 0.409 |
| CCGATCCC | PBM E-score | 0.34 |

Record PBM E-score per entry; entries follow.
1. ACCTTCGG
2. CGAGTAAA
3. GAAGCCGC

Result:
[0.404, 0.143, 0.193]

Record PBM E-score per entry; entries follow.
1. AGGCTCTA
2. ATTTCGAG
3. CACATCCA
4. ATACATGA
5. ATCGACGC

Result:
-0.08
-0.0811
-0.0807
-0.212
-0.126

Record PBM E-score per entry; entries follow.
1. CACTCGAA
2. CCTCTGGC

Result:
[-0.267, 0.0427]
